assay: JC-1 mitochondrial signal, unstimulated adipocytes – cell-based, JC-1 fluorescence, 3T3-L1 adipocytes, 24 h, 100 nL compound, profiling panel (AID 1168); conditions: JC-1 mitochondrial fluorescence, higher = more signal, called active from +8 up or from −8 down; further: test concentration not given here
Quick rule: z-score of at least -0.4 means 1, below that means 0.

Examples with answers:
INSERT INTO measurements (compound, class_assignment) VALUES
  ('O=C(CS)NCCCCCNC(=O)[C@H]1C[C@H]2C(=O)NCC(=O)N2[C@H]1c1cccc(OCCO)c1', 1),
  ('CC(=CC1CCCCC1)[C@@H](NC(=O)c1cccnc1)c1ccc(-c2ccccc2)cc1', 0),
  ('COCCOC(=O)N1C(=O)[C@@]2(c3cc(C#CCCO)ccc31)[C@H](c1ccc(O)cc1)N1[C@H](c3ccccc3)[C@H](c3ccccc3)OC(=O)[C@H]1[C@@H]2C(=O)N1CCN(c2ncccn2)CC1', 0),
  ('COc1ccc([Si](C)(C)[C@@H]2[C@@H](CC(=O)N3CCC[C@H]3CO)O[C@]3(C(=O)N(Cc4cccc(I)c4)c4ccccc43)[C@H]2C)cc1', 1),
  ('COc1ccc([Si](C)(C)[C@@H]2[C@@H](CC(=O)N3Cc4ccccc4C[C@H]3CO)O[C@]3(C(=O)N(Cc4cccc(N5CCC5=O)c4)c4ccccc43)[C@H]2C)cc1', 1);

Entry CCOc1ccc(N2C(=O)CSC2c2cccc([N+](=O)[O-])c2)cc1 (stereo not given) : is its z-score no less than -0.4?
1

Check this compound for z-score at or above -0.4: O=C1C2C=CC(C(O)C=Cc3ccc([N+](=O)[O-])cc3)N(Nc3ccccc3F)C2C(=O)N1c1ccccc1 (stereo not given)
0

Determine whether this compound has z-score no lower than -0.4: `CCOC(=O)C1=CC[C@@H](c2ccc(C(F)(F)F)cc2)N(S(=O)(=O)c2ccc(C)cc2)[C@H]1c1ccccc1`
1

For this compound, is measured z-score -0.4 or higher? `COCCCNC(=O)[C@@]1(Sc2ccc(C)cc2)CC(=O)N(Cc2ccccc2Cl)[C@@H]1c1ccc(CO)cc1`
0

Reported z-score reaches at least -0.4 for `COC(=O)[C@@]1(Cc2ccc(OC)cc2)[C@H]2c3cc(C(=O)N4CCCC4)n(CCCNc4ncc(C(F)(F)F)cc4Cl)c3C[C@H]2CN1C(=O)c1ccccc1` ?
0

Has C=CCC(OC(C)=O)[C@@H]1[C@@H](N(Cc2ccc(-c3ccccc3)cc2)C(=O)Cc2ccc(F)cc2)c2cc(OCCCO)ccc2N1C(=O)c1ccc2ccccc2c1 (stereo not given in full) a recorded z-score greater than or equal to -0.4?
0

Given O=C1NC(=O)C2C1C=CC(C(O)c1ccc(-c3ccccc3)s1)N2Nc1ccc(Cl)cc1Cl (stereo not given) , state whether its z-score is at least -0.4.
0

Please indicate if the recorded z-score for `COC(=O)c1c(CC[C@@H](CO)NC(=O)N[C@H](Cc2ccccc2)Cn2cc(-c3ccccn3)nn2)oc(C(C)=O)c1C(=O)OC` meets or exceeds -0.4.
0

z-score >= -0.4 for `O=C1N(CCS(=O)(=O)c2ccccc2)c2ccccc2[C@@H]2OC(c3ccc(OCCCO)cc3)=N[C@]12Cc1ccccc1` ?
1

Say whether O=C(O)C1N=C(c2ccc(OCCCO)cc2)N(c2ccccc2)O1 (stereo not given) shows z-score of -0.4 or more.
1
